Target: T1, mCD1d (Mus musculus, UniProt P11609)
T1 sequence (P11609 22-305 limits assumed): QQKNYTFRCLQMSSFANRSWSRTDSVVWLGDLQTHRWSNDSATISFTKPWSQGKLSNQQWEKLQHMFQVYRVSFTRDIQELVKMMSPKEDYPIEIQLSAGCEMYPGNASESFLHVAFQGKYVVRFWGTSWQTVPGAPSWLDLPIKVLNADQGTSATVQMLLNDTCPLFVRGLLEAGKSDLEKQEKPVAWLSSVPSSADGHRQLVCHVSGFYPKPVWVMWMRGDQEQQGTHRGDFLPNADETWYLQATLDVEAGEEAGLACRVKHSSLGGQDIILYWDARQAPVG
T1 sequence (P01887 21-119 partner): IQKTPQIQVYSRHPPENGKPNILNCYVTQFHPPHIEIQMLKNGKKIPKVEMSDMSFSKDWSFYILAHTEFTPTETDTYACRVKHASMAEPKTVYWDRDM
Assay: In vitro CD1d loading assay with immobilized mCD1d, saposins or Triton X-100, DN32.D3 hybridoma IL-2 readout
Format: biochemical
Conditions: saposin 10 μg/ml, glycolipid αGalCer-C26:0
Procedure: Figure 5 Lack of Detergent-like Cofactor Dependence of Th2 Cell-Type Cytokine-Biasing αGalCer Analogs (A) Glycolipids were incubated for 24 hr at 37°C with murine CD1d proteins in the absence (top row) or presence (bottom row) of 0.05% Triton X-100. […] After washing, DN32.D3 iNKT hybridoma cells were added and supernatant concentrations of IL-2 were determined after an additional 14 hr of incubation. […]
Metric name: activity of purified saposin in enabling loading of αGalCer-C26:0 onto mCD1d

INSERT INTO measurements (molecule, experimental_result) VALUES
  ('saposin D: recombinant purified human saposin D (protein, UniProt P07602 405-486, looked up, Saposin-D) Saposin-D: DGGFCEVCKKLVGYLDRNLEKNSTKQEILAALEKGCSFLPDPYQKQCDQFVAEYEPVLIEILVEVMDPSFVCLKIGACPSAH', 'minimal or no activity'),
  ('saposin C: recombinant purified human saposin C (protein, UniProt P07602 311-390, looked up, Saposin-C) Saposin-C: SDVYCEVCEFLVKEVTKLIDNNKTEKEILDAFDKMCSKLPKSLSEECQEVVDTYGSSILSILLEEVSPELVCSMLHLCSG', 'minimal or no activity'),
  ('saposin A: recombinant purified human saposin A (protein, UniProt P07602 60-142, looked up, Saposin-A) Saposin-A: SLPCDICKDVVTAAGDMLKDNATEEEILVYLEKTCDWLPKPNMSASCKEIVDSYLPVILDIIKGEMSRPGEVCSALNLCESLQ', 'minimal or no activity');

// data source = paper PMC2719696
